- Target Entity: NAALADase (Rattus norvegicus, UniProt P70627)
- Sequence (P70627 whole entry): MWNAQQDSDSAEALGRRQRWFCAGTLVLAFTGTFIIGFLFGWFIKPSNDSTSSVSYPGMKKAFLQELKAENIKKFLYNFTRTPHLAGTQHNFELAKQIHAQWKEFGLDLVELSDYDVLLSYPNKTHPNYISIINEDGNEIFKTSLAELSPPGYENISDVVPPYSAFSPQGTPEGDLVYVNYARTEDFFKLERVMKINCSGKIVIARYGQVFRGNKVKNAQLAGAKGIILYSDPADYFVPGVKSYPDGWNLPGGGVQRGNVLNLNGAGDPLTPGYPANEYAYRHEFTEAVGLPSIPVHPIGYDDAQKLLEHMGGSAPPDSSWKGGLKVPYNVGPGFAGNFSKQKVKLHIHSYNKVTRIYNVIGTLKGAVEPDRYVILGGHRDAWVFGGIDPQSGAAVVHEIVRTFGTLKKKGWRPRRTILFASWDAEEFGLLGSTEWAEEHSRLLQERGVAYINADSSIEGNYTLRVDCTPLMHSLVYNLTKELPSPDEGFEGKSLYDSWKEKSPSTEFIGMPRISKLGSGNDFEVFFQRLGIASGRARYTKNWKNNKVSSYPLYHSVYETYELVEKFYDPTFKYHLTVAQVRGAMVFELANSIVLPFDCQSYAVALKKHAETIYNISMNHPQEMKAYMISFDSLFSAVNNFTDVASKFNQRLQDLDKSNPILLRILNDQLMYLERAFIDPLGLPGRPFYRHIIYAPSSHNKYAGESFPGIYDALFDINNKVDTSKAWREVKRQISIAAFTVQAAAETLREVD
pKi: −log10 of the molar value.
Kind request: treat 5 as inclusive, so pKi at 5 or higher is 1 (yes), anything lower is 0 (no).

Assess whether reported pKi for `O=C(O)c1ccc(C(=O)O)c(S(=O)(=O)c2cc(C(=O)O)ccc2C(=O)O)c1` sits at 5 or higher.
1 (yes)

Queued: `O=C(O)CNc1cc(C(=O)O)cc(C(=O)O)c1`
0 (no)

Queued: `O=C(O)c1cc(CP(=O)(O)O)cc(C(=O)O)c1`
1 (yes)

Queued: `O=C(O)c1cc(CNCc2ccco2)cc(C(=O)O)c1`
0 (no)

Queued: `O=C(O)c1cc(OCCS)cc(C(=O)O)c1`
0 (no)

Queued: `O=C(O)c1ccc(C(=O)c2ccc(Oc3ccc(C(=O)O)c(C(=O)O)c3)cc2)c(C(=O)O)c1`
1 (yes)

Queued: `O=C(O)c1cc(OCCCS)cc(C(=O)O)c1`
1 (yes)

Queued: `O=C(O)c1ccc(Sc2ccccc2C(=O)O)c(C(=O)O)c1`
1 (yes)
